testedSystem: TRPA1 (Rattus norvegicus, UniProt Q6RI86)
Construct: TRPA1 natively expressed on the central terminals of dorsal root ganglion neurons; from tissue; host or cells: lumbar spinal cord homogenate (synaptosomes) of adult male Sprague Dawley rats
Sequence (Q6RI86 whole entry): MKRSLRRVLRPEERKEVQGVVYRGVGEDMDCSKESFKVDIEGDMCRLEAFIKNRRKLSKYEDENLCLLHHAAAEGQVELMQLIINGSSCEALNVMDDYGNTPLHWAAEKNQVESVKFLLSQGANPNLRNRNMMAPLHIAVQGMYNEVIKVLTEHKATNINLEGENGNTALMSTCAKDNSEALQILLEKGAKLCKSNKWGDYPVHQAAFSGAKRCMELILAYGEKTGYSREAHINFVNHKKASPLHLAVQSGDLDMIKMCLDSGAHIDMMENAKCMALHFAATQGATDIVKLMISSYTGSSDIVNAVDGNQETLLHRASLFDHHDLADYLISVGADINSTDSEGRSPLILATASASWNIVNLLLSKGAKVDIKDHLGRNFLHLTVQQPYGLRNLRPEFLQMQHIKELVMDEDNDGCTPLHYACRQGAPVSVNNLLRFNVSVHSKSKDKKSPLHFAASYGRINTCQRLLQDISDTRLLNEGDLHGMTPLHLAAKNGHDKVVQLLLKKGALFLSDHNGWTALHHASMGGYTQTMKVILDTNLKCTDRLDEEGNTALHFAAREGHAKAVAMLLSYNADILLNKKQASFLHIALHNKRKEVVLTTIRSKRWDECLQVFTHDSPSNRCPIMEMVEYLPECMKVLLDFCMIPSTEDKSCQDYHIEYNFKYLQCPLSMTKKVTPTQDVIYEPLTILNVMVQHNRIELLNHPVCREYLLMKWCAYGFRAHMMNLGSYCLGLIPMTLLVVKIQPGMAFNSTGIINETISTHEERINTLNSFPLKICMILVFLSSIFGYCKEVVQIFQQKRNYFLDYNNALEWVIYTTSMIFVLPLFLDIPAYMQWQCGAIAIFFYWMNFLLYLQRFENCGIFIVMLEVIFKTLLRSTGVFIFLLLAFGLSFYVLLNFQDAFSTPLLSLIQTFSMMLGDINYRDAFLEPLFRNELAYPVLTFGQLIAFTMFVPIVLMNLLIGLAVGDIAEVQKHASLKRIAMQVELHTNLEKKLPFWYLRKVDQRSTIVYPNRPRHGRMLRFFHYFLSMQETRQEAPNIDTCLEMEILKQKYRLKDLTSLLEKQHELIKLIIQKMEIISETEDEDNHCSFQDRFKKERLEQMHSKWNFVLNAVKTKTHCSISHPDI
experimentNotes: cell-based
cond: EC50 of CGRP release, rat spinal cord homogenate, ELISA, mean ± SEM
pEC50: −log10 of the molar value.

molecule	pEC50
O=C/C=C/c1ccccc1 [cinnamaldehyde]	4.26
